Source of measurements: the supplement of paper PMC13207355

# surviving fraction values compiled below
# Test system: E21 (patient-derived glioblastoma stem cells of mesenchymal subtype);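 note: nuclei counted by high-content imaging of Hoechst-stained cells in laminin-coated 384-well plates, relative to 0.1% DMSO vehicle wells, with staurosporine as cell-death control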
# assay-explanation: surviving fraction (nuclei count normalised to DMSO); higher = more cells surviving (less toxic)
# assay-setup: 1000 nM; exposure time: 72 h
Structures can show the parent of a compound that is named as a salt.

{"molecule": "O=C1c2c(O)ccc(O)c2C(=O)c2c(NCCNCCO)ccc(NCCNCCO)c21", "surviving fraction": 0.209}
{"molecule": "COC(=O)C[C@](O)(CCCC(C)(C)O)C(=O)O[C@@H]1C(OC)=C[C@]23CCCN2CCc2cc4c(cc2[C@H]13)OCO4", "surviving fraction": 0.179}
{"molecule": "COC(=O)Nc1nc2cc(C(=O)c3ccc(F)cc3)ccc2[nH]1", "surviving fraction": 0.161}
{"molecule": "CN(c1nccc(=O)[nH]1)C1CCN(c2nc3ccccc3n2Cc2ccc(F)cc2)CC1", "surviving fraction": 1.01}
{"molecule": "C[C@@]12C(=O)OC(=O)[C@]1(C)[C@H]1CC[C@@H]2O1", "surviving fraction": 0.00198}
{"molecule": "COc1cc2c(cc1-c1c(C)noc1C)ncc1[nH]c(=O)n([C@H](C)c3ccccn3)c12", "surviving fraction": 0.567}
{"molecule": "CCN(CC)CCCC(C)Nc1c2ccc(Cl)cc2nc2ccc(OC)cc12 (stereo not drawn) [Quinacrine dihydrochloride hydrate]", "surviving fraction": 1.09}
{"molecule": "CN1C(=O)OC(C)(C)C1=O", "surviving fraction": 0.949}
